// provenance: paper PMC7216583

System: Toxoplasma gondii RH-2F tachyzoites
assay_remarks: microbe, parasite or virus in culture
condition_context: 72 h, read-out: Parasite inhibition (%) mean, preliminary screen of compound library, mean
property_measured: inhibition of growth at 5 µM (%)
Numeric only. Scale: %

inhibition of growth at 5 µM recorded for this compound, CC(C)[C@H](C(=O)Nc1ccc(C(=O)NO)cc1)c1ccccc1 [AR-42 (HDAC-42)] , is 61

Data point: CC1(C)C(=O)N(CCN2CCC(C(=O)c3ccc(F)cc3)CC2)c2ccccc21 [LY310762] ; inhibition of growth at 5 µM = 1.5

inhibition of growth at 5 µM recorded for this compound, CCC(CC)CC1(C(=O)Nc2ccccc2SC(=O)C(C)C)CCCCC1 [Dalcetrapib (JTT-705)] , is 0.4

# compound O=C(O)c1ccc2c(c1)nc(Nc1cccc(Cl)c1)c1ccncc12 [CX-4945 (Silmitasertib)] ; its inhibition of growth at 5 µM = 1.5

Short answer for N#CC[C@@H](C1CCCC1)n1cc(-c2ncnc3[nH]ccc23)cn1 [S-Ruxolitinib] : inhibition of growth at 5 µM was 10.7

The compound O=C(Nc1ccccc1)N1CCN(c2nc(-c3ccccc3)ns2)CC1 [JNJ 1661010] showed inhibition of growth at 5 µM equal to 10.5

For this compound ( CNC(=O)c1ccc(C)c(-n2c(C)cc(OCc3ccc(F)cc3F)c(Br)c2=O)c1 [PH-797804] ), measured inhibition of growth at 5 µM is 1.5

inhibition of growth at 5 µM in this record for O=C(O)CNC(=O)c1c(O)c2ccccc2n(Cc2ccccc2)c1=O [IOX2] : 32.8

# inhibition of growth at 5 µM of COc1cc2ncnc(-n3nc(-c4ccccn4)nc3N)c2cc1OC [CP-466722] = 2.5

----------
System: Toxoplasma gondii RH-2F tachyzoites
assay_remarks: microbe, parasite or virus in culture
condition_context: 72 h, read-out: Parasite inhibition (%) mean, preliminary screen of compound library, mean
Where a name gives a salt, the structure may show the parent alone.
So I've got a bunch of molecules here, and I need their inhibition of growth at 5 µM values.
Write it as a number; the unit % goes unstated.

Reported inhibition of growth at 5 µM of Cc1c(C(=O)NN2CCCCC2)nn(-c2ccc(Cl)cc2Cl)c1-c1ccc(Cl)cc1 [Rimonabant (SR141716)] : 5.1

Lab book: inhibition of growth at 5 µM of CN[C@@H]1C[C@@H](N)[C@H](O)[C@@H](O[C@@H]2O[C@H](CO)[C@H](O)[C@@H]3OC4(O[C@@H]23)O[C@H]([C@@H](N)CO)[C@H](O)[C@H](O)[C@@H]4O)[C@@H]1O (stereo partly shown) [Hygromycin B] noted as 40.4

The molecule identified as NC(=O)Cc1cccc(C(=O)c2ccccc2)c1N [Nepafenac] registered its inhibition of growth at 5 µM at -10.3

Consider Clc1ccc(C(Cn2ccnc2)OCc2ccc(Sc3ccccc3)cc2)c(Cl)c1 (stereo not shown) [Fenticonazole nitrate] . Its measured inhibition of growth at 5 µM is 19.8

Just so you know, measured inhibition of growth at 5 µM for Cc1ccccc1C(=O)Nc1ccc(C(=O)N2CCCC(N(C)C)c3ccccc32)cc1 (stereo not shown) [Mozavaptan] came out at 3.1

Sure, the documented inhibition of growth at 5 µM for C=CCc1cc(OC)c(O)c(C(=O)NCCO)c1 [Alibendol] is 0.1

For this molecule ( CNC(=O)c1cc(COc2nnc(Nc3ccc(Cl)cc3)c3ccoc23)ccn1 [Telatinib (BAY 57-9352)] ), measured inhibition of growth at 5 µM is -15.6

Documented inhibition of growth at 5 µM of C[C@@]12C[C@@]3(O)O[C@@H](O1)[C@]1(COC(=O)c4ccccc4)[C@H]3C[C@@]12O[C@@H]1O[C@H](CO)[C@@H](O)[C@H](O)[C@H]1O [Paeoniflorin] : 0.7

Given item O=C(c1ccc(OCCCc2cnc[nH]2)cc1)C1CC1 [Ciproxifan] , the value recorded as its inhibition of growth at 5 µM is 0.5

The reported inhibition of growth at 5 µM of the molecule N[C@H](C(=O)O)[C@H](O)c1ccc(O)c(O)c1 [Droxidopa (L-DOPS)] was 39.8

Value of measured inhibition of growth at 5 µM for the entry Nc1cc(C(F)(F)F)c(-c2cc(N3CCOCC3)nc(N3CCOCC3)n2)cn1 [BKM120 (NVP-BKM120)] : 41.3

Input CN(C[C@@H]1COCCO1)S(=O)(=O)Nc1ccc2ccc3ncc(-c4cnn(C)c4)cc3c(=O)c2c1 [MK-2461] . Output inhibition of growth at 5 µM: 79.8

Looking up COc1cc2nc(N3CCCN(C)CC3)nc(NC3CCN(Cc4ccccc4)CC3)c2cc1OC [BIX01294] , I see its inhibition of growth at 5 µM listed as 21.8

Value of measured inhibition of growth at 5 µM for the entry NC(=O)c1cccc(-c2cccc(OC(=O)NC3CCCCC3)c2)c1 [URB597] : 2.1

What the record says about CN1CCc2c(c3ccccc3n2Cc2ccc(C(=O)NO)cc2)C1 [Tubastatin A HCl] : inhibition of growth at 5 µM is 2.3

CN1C2=CC(=O)/C(=N\NC(N)=O)C=C2CC1S(=O)(=O)O (stereo not shown) [Carbazochrome sodium sulfonate] has a reported inhibition of growth at 5 µM of 1.2
